Listed here are binders together with their documented cAMP EC50.
- tested_system: human glucagon receptor (human) (UniProt P47871)
- measurement_protocol: cell-based or functional assay

The following binders have reported results that may help.
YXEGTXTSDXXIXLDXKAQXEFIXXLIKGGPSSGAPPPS (Y-Aib-EGT-αMeF(2F)-TSD-4Pal-Aib-I-αMeL-LD-Orn-K((2-[2-(2-Amino-ethoxy)-ethoxy]-acetyl)2-(10-(4-carboxyphenoxy)decanoyl))AQ-Aib-EFI-(D-Glu)-αMeY-LIK((2-[2-(2-Amino-ethoxy)-ethoxy]-acetyl)2-(10-(4-carboxyphenoxy)decanoyl))GGPSSGAPPPS-NH2) [Example 395]
> 9.95 µM
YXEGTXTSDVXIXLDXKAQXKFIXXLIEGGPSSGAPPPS (Y-Aib-EGT-αMeF(2F)-TSDV-Aib-I-αMeL-LD-Orn-K((2-[2-(2-Amino-ethoxy)-ethoxy]-acetyl)-(γ-Glu)-CO-(CH2)12-CO2H)AQ-Aib-K((2-[2-(2-Amino-ethoxy)-ethoxy]-acetyl)-(γ-Glu)-CO-(CH2)12-CO2H)FI-(D-Glu)-αMeY-LIEGGPSSGAPPPS-NH2) [Example 398]
> 9.95 µM

Kindly consider the entry below.
Looking up YXEGTXTSDXXIXLDXKAQXKXIXXLIEGGPSSGAPPPS (not fully specified; Y-Aib-EGT-αMeF(2F)-TSD-4Pal-Aib-I-αMeL-LD-Orn-K((2-[2-(2-Amino-ethoxy)-ethoxy]-acetyl)2-(γ Glu)-CO-(CH2)10H3)AQ-Aib-K((2-[2-(2-Amino-ethoxy)-ethoxy]-acetyl)2-(γGlu)-CO-(CH2)10C3)-αMeFI-(D-Glu)-αMeY-LIEGGPSSGAPPPS-NH2) [Example 430] , I see its cAMP EC50 listed as > 9.95 µM
